From: paper PMC9482650

- TARGET_OR_SYSTEM: T1, LNX2_2, Q8N448
- T1 sequence (Q8N448 334-432, limits assumed, looked up): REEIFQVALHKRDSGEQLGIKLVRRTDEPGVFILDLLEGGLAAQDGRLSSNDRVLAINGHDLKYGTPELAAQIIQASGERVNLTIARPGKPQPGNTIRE
- TEST_METHOD_NOTES: holdup assay
- Design: key: below the threshold = too weak to quantify, mostly under pKd 3.1 to 4
- EXPERIMENTAL_SETUP: plain residues with an end cap or a label only (N-terminal biotin on a linker: ado-ado)
ENDPOINT: pKd

>>> observed_result("KPDKQEEFYA [SDC3, O75056]")
"below the threshold"
>>> observed_result("DYSNLRETDI [ADRA1D, P25100]")
"below the threshold"
>>> observed_result("SAGADSETHC [SLCO1B1, Q9Y6L6]")
"below the threshold"
